# credit: patent US10988474B2

Recorded measurements of Kb, one per entry
Molecular target: human prostanoid DP1 receptor (Homo sapiens)
Construct: expressed in transfected cells
Sequence (Q13258 1-359): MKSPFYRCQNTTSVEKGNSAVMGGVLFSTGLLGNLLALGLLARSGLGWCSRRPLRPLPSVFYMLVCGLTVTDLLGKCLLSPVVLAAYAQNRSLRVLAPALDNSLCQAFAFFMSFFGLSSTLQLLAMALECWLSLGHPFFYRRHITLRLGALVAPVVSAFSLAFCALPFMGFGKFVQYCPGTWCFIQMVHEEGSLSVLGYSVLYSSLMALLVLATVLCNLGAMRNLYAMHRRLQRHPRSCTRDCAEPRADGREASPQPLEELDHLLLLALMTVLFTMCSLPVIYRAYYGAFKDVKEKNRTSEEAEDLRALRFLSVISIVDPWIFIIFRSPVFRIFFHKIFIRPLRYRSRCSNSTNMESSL
Test: FLIPR Ca2+ signaling PG antagonist assay, DP1 stable cell line
Type: cell-based
Details: HEK-293 EBNA cells, human recombinant DP1 with chimeric Gqs; standard agonist BW 245C; read-out: DP (Kb, PG antagonist activity)

Compound: O=C(O)c1cccc2nn(Cc3cc(Cl)ccc3OCc3ccc(Cl)cc3)cc12 [Example 41]
Units text: nM
Kb: 4700
--
Compound: CCC(CC)COc1ccc(Br)cc1Cn1ccc2cc(C(=O)O)ccc21 [Example 69]
Units text: nM
Kb: 3700
--
Compound: O=C(O)c1ccc2c(cnn2Cc2cc(Br)ccc2OCc2ccc(Cl)cc2)c1 [Example 13]
Units text: nM
Kb: 1200
--
Compound: CC(C)COc1ccc(Cl)cc1Cn1ncc2cc(C(=O)O)cnc21 [Example 57]
Units text: nM
Kb: 5500
--
Compound: O=C(O)c1ccc2c(cnn2Cc2cc(Br)ccc2OCC2CCCC2)c1 [Example 14]
Units text: nM
Kb: 600
--
Compound: CC(C)COc1ccc(Br)cc1Cn1ccc2cc(C(=O)O)cnc21 [Example 72]
Units text: nM
Kb: 1500
--
Compound: CCC(CC)COc1ccc(C(F)(F)F)cc1Cn1nc(C)c2cc(C(=O)O)ccc21 [Example 26]
Units text: nM
Kb: 1700

====

Recorded measurements of Kb, one per entry
Target: human prostanoid EP1 receptor (Homo sapiens)
Construct: expressed in transfected cells
Sequence (P34995 whole entry): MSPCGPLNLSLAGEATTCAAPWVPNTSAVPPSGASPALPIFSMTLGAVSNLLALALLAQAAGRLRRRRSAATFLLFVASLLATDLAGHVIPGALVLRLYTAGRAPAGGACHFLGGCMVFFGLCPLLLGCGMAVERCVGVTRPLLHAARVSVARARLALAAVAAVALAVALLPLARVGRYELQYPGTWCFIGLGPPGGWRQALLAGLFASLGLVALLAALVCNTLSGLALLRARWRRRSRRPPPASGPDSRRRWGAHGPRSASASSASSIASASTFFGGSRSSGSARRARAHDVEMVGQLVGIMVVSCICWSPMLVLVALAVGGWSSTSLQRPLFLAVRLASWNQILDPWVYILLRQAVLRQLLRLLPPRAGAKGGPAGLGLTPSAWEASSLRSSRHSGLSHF
Assay: FLIPR Ca2+ signaling PG antagonist assay, EP1 stable cell line
Assay type: cell-based
Settings: HEK-293 EBNA cells, human recombinant EP1, no exogenous G-protein; standard agonist PGE2

Mol: Cc1nn(Cc2cc(Br)ccc2OCC2(C)CC2)c2ccc(C(=O)O)cc12
Units text: nM
Kb: 43

Mol: CCC(CC)COc1ccc(Cl)cc1Cn1ccc2cc(C(=O)O)ccc21
Units text: nM
Kb: 180

Mol: CCC(CC)COc1ccc(Cl)cc1Cn1ncc2cc(C(=O)O)ncc21
Units text: nM
Kb: 1200

Mol: CC(C)COc1ccc(OC(F)(F)F)cc1Cn1ccc2cc(C(=O)O)ccc21
Units text: nM
Kb: 100

Mol: Cc1nn(Cc2cc(Br)ccc2OCC(C)C)c2ccc(C(=O)O)cc12
Units text: nM
Kb: 14

====

Molecular target: human prostanoid IP receptor (Homo sapiens)
Construct: expressed in transfected cells
Sequence (P43119 whole entry): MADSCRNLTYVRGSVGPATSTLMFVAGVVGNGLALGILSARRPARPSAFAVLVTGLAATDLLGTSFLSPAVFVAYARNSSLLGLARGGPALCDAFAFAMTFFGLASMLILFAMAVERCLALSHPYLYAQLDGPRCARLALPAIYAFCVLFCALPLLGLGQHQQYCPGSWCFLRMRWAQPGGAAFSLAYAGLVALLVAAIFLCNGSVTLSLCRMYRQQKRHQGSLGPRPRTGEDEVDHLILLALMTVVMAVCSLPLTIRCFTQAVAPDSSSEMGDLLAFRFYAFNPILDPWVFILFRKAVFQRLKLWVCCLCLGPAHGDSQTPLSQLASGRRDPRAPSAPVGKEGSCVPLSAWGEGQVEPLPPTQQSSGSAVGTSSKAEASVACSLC
Test: FLIPR Ca2+ signaling PG antagonist assay, IP stable cell line
Type: cell-based
Conditions: HEK-293 EBNA cells, human recombinant IP, no exogenous G-protein; standard agonist Cicaprost
Recorded measurements of log10 of Kb, one per entry
Measure: log10 of Kb (log10 of the value in µM)

Mol: CCC(CC)Oc1ccc(Br)cc1Cn1ncc2cc(C(=O)O)ccc21
Measurement: 0.04

Mol: O=C(O)c1ccc2c(cnn2Cc2cc(C(F)(F)F)ccc2OCC2CCCC2)c1
Measurement: -0.40

Mol: CC(C)COc1ccc(Br)cc1Cn1ncc2ccc(C(=O)O)cc21
Measurement: 0.53

Mol: CC(C)COc1ccc(Cl)cc1Cn1cc2cc(C(=O)O)ccc2n1
Measurement: 0.82

Mol: CC(C)COc1ccc(Br)cc1Cn1ncc2cc(C(=O)O)ccc21
Measurement: -0.10

Mol: O=C(O)c1ccc2cn(Cc3cc(Br)ccc3OCC3CCCC3)nc2c1
Measurement: 0.85

Mol: O=C(O)c1ccc2c(cnn2Cc2cc(Br)ccc2OCc2ccccc2)c1
Measurement: 0.70

Mol: Cc1cc2cc(C(=O)O)ccc2n1Cc1cc(Br)ccc1OCC(C)C
Measurement: 0.66

Mol: CC(C)COc1ccc(OC(F)(F)F)cc1Cn1ccc2cc(C(=O)O)cnc21
Measurement: 0.15

Mol: O=C(O)c1ccc2c(cnn2Cc2cc(Cl)ccc2OCC2CCCC2)c1
Measurement: -0.40

Mol: CCC(CC)COc1ccc(Cl)cc1Cn1cc2c(C(=O)O)cccc2n1
Measurement: 0.69

Mol: CC(C)COc1ccc(OC(F)F)cc1Cn1ncc2cc(C(=O)O)ccc21
Measurement: 0.61

Mol: CCC(CC)COc1ccc(Cl)cc1Cn1ncc2c(C(=O)O)cccc21
Measurement: -1.22

Mol: CC1(COc2ccc(Br)cc2Cn2ncc3cc(C(=O)O)ccc32)CC1
Measurement: 0.66

Mol: Cc1nn(Cc2cc(Cl)ccc2OCC(C)C)c2ccc(C(=O)O)cc12
Measurement: 0.16

Mol: CCc1nn(Cc2cc(Br)ccc2OCC(C)C)c2ccc(C(=O)O)cc12
Measurement: -0.15

Mol: CC(C)COc1ccc(Br)cc1Cn1ncc2c(C(=O)O)cccc21
Measurement: 0.11

Mol: CCC(CC)COc1ccc(Cl)cc1Cn1nc(C)c2cc(C(=O)O)cnc21
Measurement: -0.20

Mol: Cc1nn(Cc2cc(OC(F)(F)F)ccc2OCC(C)C)c2ccc(C(=O)O)cc12
Measurement: 0.78

Mol: CCC(CC)COc1ccc(Br)cc1Cn1nc(C)c2cc(C(=O)O)ccc21
Measurement: -0.36

Mol: CCC(CC)COc1ccc(Br)cc1Cn1c(C)cc2cc(C(=O)O)ccc21
Measurement: 0.82

Mol: O=C(O)c1ccc2c(cnn2Cc2cc(C(F)(F)F)ccc2OCc2ccc(Cl)cc2)c1
Measurement: 0.87

Mol: CCC(CC)COc1ccc(Cl)cc1Cn1ncc2cc(C(=O)O)ncc21
Measurement: 0.70

Mol: O=C(O)c1ccc2c(cnn2Cc2cc(Br)ccc2OCc2ccc(Cl)cc2)c1
Measurement: -0.22

Mol: Cc1nn(Cc2cc(Br)ccc2OCC2(C)CC2)c2ccc(C(=O)O)cc12
Measurement: 0.18

Mol: CC(C)COc1c(F)cc(Cl)cc1Cn1ncc2cc(C(=O)O)ccc21
Measurement: 0.68

====

Biological target: human prostanoid FP receptor (Homo sapiens)
Construct: expressed in transfected cells
Sequence (P43088 whole entry): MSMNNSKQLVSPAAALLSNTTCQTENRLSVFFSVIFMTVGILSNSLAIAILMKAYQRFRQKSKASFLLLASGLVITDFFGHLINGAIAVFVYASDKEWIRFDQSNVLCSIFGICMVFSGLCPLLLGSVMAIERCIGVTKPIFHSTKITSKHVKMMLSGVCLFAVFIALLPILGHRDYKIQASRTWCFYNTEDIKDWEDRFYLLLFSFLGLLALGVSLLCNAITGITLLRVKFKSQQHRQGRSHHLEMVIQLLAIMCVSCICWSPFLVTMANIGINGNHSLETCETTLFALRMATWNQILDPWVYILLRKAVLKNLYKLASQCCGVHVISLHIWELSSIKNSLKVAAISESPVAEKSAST
Test: FLIPR Ca2+ signaling PG antagonist assay, FP stable cell line
Format: cell-based
Details: HEK-293 EBNA cells, human recombinant FP, no exogenous G-protein; standard agonist 17-phenyl-PGF2α
Returns: string. Value is rule met if measured Kb is below 200 nM, and rule not met if it is greater than or equal to it.

Molecule: CCC(CC)COc1ccc(Br)cc1Cn1c(C)cc2cc(C(=O)O)ccc21 [Example 68]
Experimental target: human prostanoid FP receptor (Homo sapiens)
Class assignment: rule not met
--
Molecule: O=C(O)c1ccc2c(cnn2Cc2cc(Cl)ccc2OCC2CC2)c1 [Example 11]
Experimental target: human prostanoid FP receptor (Homo sapiens)
Class assignment: rule met
--
Molecule: O=C(O)c1ccc2cn(Cc3cc(Br)ccc3OCC3CCCC3)nc2c1 [Example 45]
Experimental target: human prostanoid FP receptor (Homo sapiens)
Class assignment: rule not met
--
Molecule: CC(C)COc1ccc(OC(F)(F)F)cc1Cn1ccc2cc(C(=O)O)ccc21 [Example 71]
Experimental target: human prostanoid FP receptor (Homo sapiens)
Class assignment: rule met
--
Molecule: CC(C)COc1ccc(Cl)cc1Cn1cc2cc(C(=O)O)ccc2n1 [Example 16]
Experimental target: human prostanoid FP receptor (Homo sapiens)
Class assignment: rule not met
--
Molecule: O=C(O)c1cccc2c1cnn2Cc1cc(Cl)ccc1OCc1ccc(Cl)cc1 [Example 40]
Experimental target: human prostanoid FP receptor (Homo sapiens)
Class assignment: rule not met
--
Molecule: CC(C)COc1ccc(Br)cc1Cn1ncc2cc(C(=O)O)ccc21 [Example 4]
Experimental target: human prostanoid FP receptor (Homo sapiens)
Class assignment: rule met
--
Molecule: O=C(O)c1ccc2c(cnn2Cc2cc(C(F)(F)F)ccc2OCC2CCCC2)c1 [Example 33]
Experimental target: human prostanoid FP receptor (Homo sapiens)
Class assignment: rule met
--
Molecule: CC(C)COc1ccc(Cl)cc1Cn1ncc2cc(C(=O)O)cnc21 [Example 57]
Experimental target: human prostanoid FP receptor (Homo sapiens)
Class assignment: rule met
--
Molecule: CC(C)COc1ccc(Cl)cc1Cn1cc2c(C(=O)O)cccc2n1 [Example 37]
Experimental target: human prostanoid FP receptor (Homo sapiens)
Class assignment: rule not met
--
Molecule: O=C(O)c1ccc2c(cnn2Cc2cc(Cl)ccc2OCC2CCCC2)c1 [Example 10]
Experimental target: human prostanoid FP receptor (Homo sapiens)
Class assignment: rule met
--
Molecule: O=C(O)c1ccc2c(cnn2Cc2cc(Br)ccc2OCC2CCCC2)c1 [Example 14]
Experimental target: human prostanoid FP receptor (Homo sapiens)
Class assignment: rule met
--
Molecule: CC(C)(C)COc1ccc(Br)cc1Cn1ncc2cc(C(=O)O)ccc21 [Example 52]
Experimental target: human prostanoid FP receptor (Homo sapiens)
Class assignment: rule met
--
Molecule: CC(C)COc1ccc(Br)cc1Cn1cnc2cc(C(=O)O)ccc21 [Example 79]
Experimental target: human prostanoid FP receptor (Homo sapiens)
Class assignment: rule met
--
Molecule: CC(C)COc1ccc(OC(F)(F)F)cc1Cn1ccc2cc(C(=O)O)cnc21 [Example 74]
Experimental target: human prostanoid FP receptor (Homo sapiens)
Class assignment: rule not met
--
Molecule: CC(C)COc1ccc(Br)cc1Cn1ccc2nc(C(=O)O)ccc21 [Example 73]
Experimental target: human prostanoid FP receptor (Homo sapiens)
Class assignment: rule not met
--
Molecule: CCc1nn(Cc2cc(Br)ccc2OCC(C)C)c2ccc(C(=O)O)cc12 [Example 64]
Experimental target: human prostanoid FP receptor (Homo sapiens)
Class assignment: rule met
--
Molecule: CC(C)COc1cc(Cl)c(Cl)cc1Cn1ncc2cc(C(=O)O)ccc21 [Example 49]
Experimental target: human prostanoid FP receptor (Homo sapiens)
Class assignment: rule met
--
Molecule: Cc1ccc(OCC(C)C)c(Cn2ncc3cc(C(=O)O)ccc32)n1 [Example 50]
Experimental target: human prostanoid FP receptor (Homo sapiens)
Class assignment: rule not met
--
Molecule: CC(C)COc1ccc(Br)cc1Cn1ncc2c(C(=O)O)cccc21 [Example 7]
Experimental target: human prostanoid FP receptor (Homo sapiens)
Class assignment: rule not met
--
Molecule: O=C(O)c1ccc2c(cnn2Cc2cc(Cl)ccc2OCc2ccc(Cl)cc2)c1 [Example 9]
Experimental target: human prostanoid FP receptor (Homo sapiens)
Class assignment: rule met
--
Molecule: CCC(CC)COc1ccc(Cl)cc1Cn1ccc2cc(C(=O)O)ccc21 [Example 1]
Experimental target: human prostanoid FP receptor (Homo sapiens)
Class assignment: rule not met
--
Molecule: Cc1nn(Cc2cc(Br)ccc2OCC2(C)CC2)c2ccc(C(=O)O)cc12 [Example 28]
Experimental target: human prostanoid FP receptor (Homo sapiens)
Class assignment: rule met
--
Molecule: CCC(CC)COc1ccc(Cl)cc1Cn1nc(C)c2cc(C(=O)O)cnc21 [Example 60]
Experimental target: human prostanoid FP receptor (Homo sapiens)
Class assignment: rule not met
--
Molecule: CC(C)COc1ccc(OC(F)F)cc1Cn1ncc2cc(C(=O)O)ccc21 [Example 56]
Experimental target: human prostanoid FP receptor (Homo sapiens)
Class assignment: rule met
--
Molecule: Cc1nn(Cc2cc(Br)ccc2OCC(C)C)c2ccc(C(=O)O)cc12 [Example 21]
Experimental target: human prostanoid FP receptor (Homo sapiens)
Class assignment: rule met
--
Molecule: CCC(CC)COc1ccc(Cl)cc1Cn1nc(C)c2cc(C(=O)O)ccc21 [Example 23]
Experimental target: human prostanoid FP receptor (Homo sapiens)
Class assignment: rule met
--
Molecule: O=C(O)c1ccc2c(cnn2Cc2cc(Br)ccc2OCC2CC2)c1 [Example 15]
Experimental target: human prostanoid FP receptor (Homo sapiens)
Class assignment: rule met
--
Molecule: CCC(CC)Oc1ccc(Br)cc1Cn1ncc2cc(C(=O)O)ccc21 [Example 51]
Experimental target: human prostanoid FP receptor (Homo sapiens)
Class assignment: rule met
--
Molecule: CC(C)COc1ccc(Cl)cc1Cn1ncc2c(C(=O)O)cccc21 [Example 36]
Experimental target: human prostanoid FP receptor (Homo sapiens)
Class assignment: rule not met
--
Molecule: Cc1nn(Cc2cc(Cl)ccc2OCC(C)C)c2ccc(C(=O)O)cc12 [Example 24]
Experimental target: human prostanoid FP receptor (Homo sapiens)
Class assignment: rule met
--
Molecule: CCC(CC)COc1ccc(Cl)cc1Cn1ncc2cc(C(=O)O)ccc21 [Example 2]
Experimental target: human prostanoid FP receptor (Homo sapiens)
Class assignment: rule met
--
Molecule: CCC(CC)COc1ccc(Br)cc1Cn1nc(C)c2cc(C(=O)O)cnc21 [Example 59]
Experimental target: human prostanoid FP receptor (Homo sapiens)
Class assignment: rule not met
--
Molecule: CCC(CC)COc1ccc(Cl)cc1Cn1ncc2cc(C(=O)O)ncc21 [Example 63]
Experimental target: human prostanoid FP receptor (Homo sapiens)
Class assignment: rule not met
--
Molecule: O=C(O)c1cccc2c1cnn2Cc1cc(Cl)ccc1OCC1CC1 [Example 34]
Experimental target: human prostanoid FP receptor (Homo sapiens)
Class assignment: rule not met
